This collection of values is drawn from patent US3954778A.

System: male albine Swiss mice
Test: Electroshock (M.E.S.)
Type: in vivo
Conditions: Mus musculus, sc, 0.5 h; new compounds (Table 2); as hydrochlorides, under skin 30 minutes ante; read-out: ED50 M.E.S.
From the text: Materials and methods. The animals used to perform the pharmacological tests with the compounds of the invention have been, unless the contrary is explicitly indicated, male albine Swiss mice weighing 19-23 g; each animal has been used only once. […]
Counter-ions that a name gives are not always drawn.
property: ED50

// CCCN(CCC)CC(=O)NC1[C@H](c2ccccc2)[C@H]1c1ccccc1 (relative stereo) [cis-trans, R1 = n-C3 H7, R2 = n-C3 H7, hydrochloride] : ED50 value = > 100 mg/kg

// CCNCC(=O)NC1[C@H](c2ccccc2)[C@H]1c1ccccc1 (relative stereo) [cis-trans, R1 = H, R2 = C2 H5, hydrochloride] : ED50 value = 16.5 mg/kg

// CCCCN(CCCC)CC(=O)NC1[C@H](c2ccccc2)[C@H]1c1ccccc1 (relative stereo) [cis-trans, R1 = n-C4 H9, R2 = n-C4 H9] : ED50 value = > 250 mg/kg
